# EC50 annotations
target.entity: Oxytocin receptor (Homo sapiens, UniProt P30559)
Sequence (P30559 whole entry): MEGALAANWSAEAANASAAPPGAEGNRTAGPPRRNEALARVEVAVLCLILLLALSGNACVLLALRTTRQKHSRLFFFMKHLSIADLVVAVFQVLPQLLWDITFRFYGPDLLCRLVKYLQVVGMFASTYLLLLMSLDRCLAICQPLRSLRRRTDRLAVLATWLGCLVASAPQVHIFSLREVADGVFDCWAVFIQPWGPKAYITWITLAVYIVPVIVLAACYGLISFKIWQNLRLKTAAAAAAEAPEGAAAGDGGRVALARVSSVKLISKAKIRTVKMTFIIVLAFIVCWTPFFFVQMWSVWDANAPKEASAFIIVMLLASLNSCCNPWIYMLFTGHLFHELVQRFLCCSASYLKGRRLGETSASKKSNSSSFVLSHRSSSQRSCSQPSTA
assay.comment: Agonist activity at human OT receptor expressed in CHO-K1 cells by luciferase reporter gene assay
Format: functional, cell-based
settings: read-out: EC50
Bridge positions count the residues as written; N and C are the ends. Square brackets hold non-standard residues; d marks the D form. Peptide text beside a SMILES is read from it. Ala(2-furyl) = N[C@@H](Cc1ccco1)C(=O)O; Orn(iPr) = CC(C)NCCC[C@H](N)C(=O)O; Dab = NCC[C@H](N)C(=O)O; Ac4c = NC1(C(=O)O)CCC1
measurement.type: EC50 (µM)

CC[C@H](C)[C@@H]1NC(=O)C2(CCC2)NC(=O)[C@@H](N)CSSC[C@@H](C(=O)N2CCC[C@H]2C(=O)N[C@@H](CCN)C(=O)NCC(N)=O)NC(=O)[C@H](CC(N)=O)NC(=O)[C@H](CCC(N)=O)NC1=O (H-C[Ac4c]IQNCP[Dab]G-NH2; disulfide 1-6)    0.18
CC[C@H](C)[C@@H]1NC(=O)[C@H](Cc2ccco2)NC(=O)[C@@H](N)CSSC[C@@H](C(=O)N2CCC[C@H]2C(=O)N[C@@H](CCCNC(C)C)C(=O)NCC(N)=O)NC(=O)[C@H](CC(N)=O)NC(=O)[C@H](CC(N)=O)NC1=O (H-C[Ala(2-furyl)]INNCP[Orn(iPr)]G-NH2; disulfide 1-6)    0.97

---

# Ratio EC50 annotations
Species on record: Homo sapiens
assay.comment: Selectivity ratio of EC50 for human vasopressin V1b receptor to EC50 for human vasopressin V1a receptor
Numbered stars: 1 amine (or outer) side, 2 acyl side, 3 side chain; on linkers, the order of the positions; unused ones are H or OH. Bridge positions count the residues as written; N and C are the ends. Square brackets hold non-standard residues; d marks the D form. Peptide text beside a SMILES is read from it. Orn(Me) = CN(CCC[C@H](N[*:1])C(=O)[*:2])[*:3]; 2Thi = N[C@@H](Cc1cccs1)C(=O)O; Cha = N[C@@H](CC1CCCCC1)C(=O)O; Dab = NCC[C@H](N)C(=O)O; Ac4c = NC1(C(=O)O)CCC1
measurement.type: Ratio EC50

CC[C@H](C)[C@@H]1NC(=O)[C@H](Cc2cccs2)NC(=O)[C@@H](N)CSSC[C@@H](C(=O)N2CCC[C@H]2C(=O)N[C@@H](CCN)C(=O)NCC(N)=O)NC(=O)[C@H](CC(N)=O)NC(=O)[C@H](CC(N)=O)NC1=O (H-C[2Thi]INNCP[Dab]G-NH2; disulfide 1-6)    42
CC[C@H](C)[C@@H]1NC(=O)[C@H](CC2CCCCC2)NC(=O)[C@@H](N)CSSC[C@@H](C(=O)N2CCC[C@H]2C(=O)N[C@@H](CCN)C(=O)NCC(N)=O)NC(=O)[C@H](CC(N)=O)NC(=O)[C@H](CC(N)=O)NC1=O (H-C[Cha]INNCP[Dab]G-NH2; disulfide 1-6)    11
CC[C@H](C)[C@@H]1NC(=O)C2(CCC2)NC(=O)[C@@H](N)CSSC[C@@H](C(=O)N2CCC[C@H]2C(=O)N[C@@H](CCN)C(=O)NCC(N)=O)NC(=O)[C@H](CC(N)=O)NC(=O)[C@H](CC(N)=O)NC1=O (H-C[Ac4c]INNCP[Dab]G-NH2; disulfide 1-6)    10
CC[C@H](C)[C@@H]1NC(=O)[C@H](Cc2ccccc2)NC(=O)[C@@H](N)CSSC[C@@H](C(=O)N2CCC[C@H]2C(=O)N[C@@H](CCCNC)C(=O)NCC(N)=O)NC(=O)[C@H](CC(N)=O)NC(=O)[C@H](CCC(N)=O)NC1=O (H-CFIQNCP[Orn(Me)]G-NH2; disulfide 1-6)    280

---

target.entity: Vasopressin V1a receptor (Homo sapiens, UniProt P37288)
Sequence (P37288 whole entry): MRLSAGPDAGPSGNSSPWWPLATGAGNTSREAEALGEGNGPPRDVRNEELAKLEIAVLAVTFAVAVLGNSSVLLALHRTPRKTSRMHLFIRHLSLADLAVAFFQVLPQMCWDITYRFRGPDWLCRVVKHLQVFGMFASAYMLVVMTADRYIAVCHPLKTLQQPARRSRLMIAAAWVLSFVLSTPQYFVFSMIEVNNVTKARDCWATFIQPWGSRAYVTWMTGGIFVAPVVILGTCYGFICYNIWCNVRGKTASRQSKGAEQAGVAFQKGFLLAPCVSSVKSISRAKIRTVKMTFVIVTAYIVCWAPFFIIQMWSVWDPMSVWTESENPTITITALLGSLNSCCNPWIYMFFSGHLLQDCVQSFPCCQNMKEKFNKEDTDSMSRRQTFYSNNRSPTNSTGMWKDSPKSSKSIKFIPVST
assay.comment: Agonist activity at recombinant human vasopressin V1a receptor expressed in HEK293 cells by luciferase reporter gene assay
Format: functional, cell-based
settings: read-out: EC50
pEC50: −log10 of the molar value. Bridge positions count the residues as written; N and C are the ends. Square brackets hold non-standard residues; d marks the D form. Peptide text beside a SMILES is read from it. Ala(4-thiazolyl) = N[C@@H](Cc1cscn1)C(=O)O; Ala(2-furyl) = N[C@@H](Cc1ccco1)C(=O)O; Orn(iPr) = CC(C)NCCC[C@H](N)C(=O)O; 3Pal = N[C@@H](Cc1cccnc1)C(=O)O; Cha = N[C@@H](CC1CCCCC1)C(=O)O; Orn = NCCC[C@H](N)C(=O)O; Dab = NCC[C@H](N)C(=O)O
Decision: pEC50 >= 8 yields T, all other cases yield F.

CC[C@H](C)[C@@H]1NC(=O)[C@H](Cc2ccco2)NC(=O)[C@@H](N)CSSC[C@@H](C(=O)N2CCC[C@H]2C(=O)N[C@@H](CCCNC(C)C)C(=O)NCC(N)=O)NC(=O)[C@H](CC(N)=O)NC(=O)[C@H](CCC(N)=O)NC1=O (H-C[Ala(2-furyl)]IQNCP[Orn(iPr)]G-NH2; disulfide 1-6)    T
CC[C@H](C)[C@@H]1NC(=O)[C@H](CC2CCCCC2)NC(=O)[C@@H](N)CSSC[C@@H](C(=O)N2CCC[C@H]2C(=O)N[C@@H](CCCN)C(=O)NCC(N)=O)NC(=O)[C@H](CC(N)=O)NC(=O)[C@H](CC(N)=O)NC1=O (H-C[Cha]INNCP[Orn]G-NH2; disulfide 1-6)    T
CC[C@H](C)[C@@H]1NC(=O)[C@H](Cc2cccnc2)NC(=O)[C@@H](N)CSSC[C@@H](C(=O)N2CCC[C@H]2C(=O)N[C@@H](CCN)C(=O)NCC(N)=O)NC(=O)[C@H](CC(N)=O)NC(=O)[C@H](CCC(N)=O)NC1=O (H-C[3Pal]IQNCP[Dab]G-NH2; disulfide 1-6)    F
CC[C@H](C)[C@@H]1NC(=O)[C@H](Cc2cscn2)NC(=O)[C@@H](N)CSSC[C@@H](C(=O)N2CCC[C@H]2C(=O)N[C@@H](CCN)C(=O)NCC(N)=O)NC(=O)[C@H](CC(N)=O)NC(=O)[C@H](CCC(N)=O)NC1=O (H-C[Ala(4-thiazolyl)]IQNCP[Dab]G-NH2; disulfide 1-6)    F
CC[C@H](C)[C@@H]1NC(=O)[C@H](Cc2ccccc2)NC(=O)[C@@H](N)CSSC[C@@H](C(=O)N2CCC[C@H]2C(=O)N[C@@H](CCCN)C(=O)NCC(N)=O)NC(=O)[C@H](CC(N)=O)NC(=O)[C@H](CC(N)=O)NC1=O (H-CFINNCP[Orn]G-NH2; disulfide 1-6)    T

---

target.entity: Vasopressin V1a/V2 (Homo sapiens) (UniProt P30518+P37288)
Sequence (P30518 whole entry, looked up): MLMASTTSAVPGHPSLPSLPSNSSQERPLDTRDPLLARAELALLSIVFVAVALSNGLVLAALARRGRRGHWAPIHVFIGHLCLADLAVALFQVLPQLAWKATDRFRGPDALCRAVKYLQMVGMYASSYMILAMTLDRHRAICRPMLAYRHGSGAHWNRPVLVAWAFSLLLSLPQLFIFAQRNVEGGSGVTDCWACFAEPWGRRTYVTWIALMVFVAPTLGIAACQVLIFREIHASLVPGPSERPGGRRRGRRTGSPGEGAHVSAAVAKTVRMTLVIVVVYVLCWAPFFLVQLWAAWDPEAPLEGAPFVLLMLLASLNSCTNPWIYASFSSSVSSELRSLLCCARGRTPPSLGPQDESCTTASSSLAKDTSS
Sequence (P37288 whole entry, looked up): as the sequence (P37288 whole entry) above
assay.comment: Selectivity ratio of EC50 for human vasopressin V2 receptor to EC50 for human vasopressin V1a receptor
Bridge positions count the residues as written; N and C are the ends. Square brackets hold non-standard residues; d marks the D form. Peptide text beside a SMILES is read from it. * marks the point of attachment. Ala(2-furyl) = N[C@@H](Cc1ccco1)C(=O)O; Ala(cPent) = N[C@@H](CC1CCCC1)C(=O)O; Orn(iPr) = CC(C)NCCC[C@H](N)C(=O)O; 2Thi = N[C@@H](Cc1cccs1)C(=O)O; 3Thi = N[C@@H](Cc1ccsc1)C(=O)O; Cha = N[C@@H](CC1CCCCC1)C(=O)O; Orn = NCCC[C@H](N)C(=O)O; Dab = NCC[C@H](N)C(=O)O; Ac4c = NC1(C(=O)O)CCC1; N(Me)OMe = CON(C)*
Decision: Ratio EC50 >= 300 yields True, all other cases yield False.

CC[C@H](C)[C@@H]1NC(=O)[C@H](Cc2ccco2)NC(=O)[C@@H](N)CSSC[C@@H](C(=O)N2CCC[C@H]2C(=O)N[C@@H](CCCNC(C)C)C(=O)NCC(N)=O)NC(=O)[C@H](CC(N)=O)NC(=O)[C@H](CCC(N)=O)NC1=O (H-C[Ala(2-furyl)]IQNCP[Orn(iPr)]G-NH2; disulfide 1-6)    True
CC[C@H](C)[C@@H]1NC(=O)[C@H](CC2CCCC2)NC(=O)[C@@H](N)CSSC[C@@H](C(=O)N2CCC[C@H]2C(=O)N[C@@H](CCN)C(=O)NCC(N)=O)NC(=O)[C@H](CC(N)=O)NC(=O)[C@H](CCC(N)=O)NC1=O (H-C[Ala(cPent)]IQNCP[Dab]G-NH2; disulfide 1-6)    True
CC[C@H](C)[C@@H]1NC(=O)[C@H](Cc2ccccc2)NC(=O)[C@@H](N)CSSC[C@@H](C(=O)N2CCC[C@H]2C(=O)N[C@@H](CCCN)C(=O)NCC(N)=O)NC(=O)[C@H](CC(N)=O)NC(=O)[C@H](CCC(=O)N(C)OC)NC1=O (H-CFIE(N(Me)OMe)NCP[Orn]G-NH2; disulfide 1-6)    False
CC[C@H](C)[C@@H]1NC(=O)[C@H](Cc2ccsc2)NC(=O)[C@@H](N)CSSC[C@@H](C(=O)N2CCC[C@H]2C(=O)N[C@@H](CCN)C(=O)NCC(N)=O)NC(=O)[C@H](CC(N)=O)NC(=O)[C@H](CCC(N)=O)NC1=O (H-C[3Thi]IQNCP[Dab]G-NH2; disulfide 1-6)    True
CC[C@H](C)[C@@H]1NC(=O)[C@H](Cc2cccs2)NC(=O)[C@@H](N)CSSC[C@@H](C(=O)N2CCC[C@H]2C(=O)N[C@@H](CCN)C(=O)NCC(N)=O)NC(=O)[C@H](CC(N)=O)NC(=O)[C@H](CCC(N)=O)NC1=O (H-C[2Thi]IQNCP[Dab]G-NH2; disulfide 1-6)    False
CC[C@H](C)[C@@H]1NC(=O)C2(CCC2)NC(=O)[C@@H](N)CSSC[C@@H](C(=O)N2CCC[C@H]2C(=O)N[C@@H](CCCN)C(=O)NCC(N)=O)NC(=O)[C@H](CC(N)=O)NC(=O)[C@H](CC(N)=O)NC1=O (H-C[Ac4c]INNCP[Orn]G-NH2; disulfide 1-6)    True
CC[C@H](C)[C@@H]1NC(=O)[C@H](CC2CCCCC2)NC(=O)[C@@H](N)CSSC[C@@H](C(=O)N2CCC[C@H]2C(=O)N[C@@H](CCN)C(=O)NCC(N)=O)NC(=O)[C@H](CC(N)=O)NC(=O)[C@H](CC(N)=O)NC1=O (H-C[Cha]INNCP[Dab]G-NH2; disulfide 1-6)    True
